Ref: patent US10759796B2

- assayNotes: in vitro
- assayConditions: human, Caco-2, pH 7.4
quantityKind: efflux ratio at 90 min, 10 μM

{"columns": ["givenSmiles", "efflux ratio at 90 min, 10 μM"],
 "data": [
  ["CN1[C@@H](c2cn3c(N4CCNC5(CC5)C4)cccc3n2)CCC[C@H]1c1ncccc1Cl", "0.1 to 10"],
  ["Cc1cccnc1[C@@H]1CCC[C@H](c2cn3c(N4CCN(C)CC4)cccc3n2)N1C(C)C", "10 to 30"],
  ["CCN1CCN(c2cccc3nc([C@H]4CCC[C@@H](c5ncccc5C)N4C)c(COC(C)C)n23)CC1", "0.1 to 10"],
  ["Cc1cccnc1[C@@H]1CCC[C@H](c2cn3c(N4CCN(C)CC4)cccc3n2)N1", "0.1 to 10"],
  ["Cc1cccnc1[C@@H]1CCC[C@H](c2nc3ccccn3c2C=C2CCN(C)CC2)N1C", "10 to 30"],
  ["CN1C2CCC1CN(c1cccc3nc([C@H]4CCC[C@@H](c5ncccc5Cl)N4C)c(CO)n13)C2", "0.1 to 10"]
]}

Next up:
Summary for this molecule, `Cc1cccnc1[C@@H]1CCC[C@H](c2nc3ccccn3c2[C@H](O)C2CCN(C)CC2)N1C` : efflux ratio at 90 min, 10 μM is 0.1 to 10

* * *

- assayNotes: MTD and pharmacokinetics and brain penetration after PO administration
- Assay type: in vivo, Male C57BL/6 Mice
- assayConditions: male, C57BL/6; Mouse brain, multiple administration, D5-300 mg/kg PO; read-out: AUClast (b)
quantityKind: AUC(0-t)

Summary for this compound, CN1CCN(c2cccc3nc([C@H]4CCC[C@@H](c5ncccc5Cl)N4)cn23)CC1 (single isomer, unassigned) : AUC(0-t) is 430 µg·h/mL

* * *

- assayNotes: Rat pharmacokinetics and brain penetration (IV and PO)
- Type: in vivo
- assayConditions: male, SD, plasma; Rat, 3 mg/kg IV; 10 mg/kg PO; read-out: F % (oral bioavailability)
For each entry below, report its bioavailability value.
One number for each entry, in %.

Below are worked cases with known answers.
{"columns": ["compound", "unitInfo", "measured"],
 "data": [
  ["CN1CCN(c2cccc3nc([C@H]4CCC[C@@H](c5ncccc5Cl)N4)cn23)CC1 (single isomer, unassigned) [Compound I-188]", "%", 36.9],
  ["Cc1cccnc1[C@@H]1CCC[C@H](c2nc3cccc(N4CCN(C)CC4)n3c2Cl)N1", "%", 70.1],
  ["CN1CCN(c2cccc3nc([C@H]4CCC[C@@H](c5ncccc5Cl)N4)cn23)CC1 (racemic) [Compound I-149]", "%", 37.9]
]}

Summary for this compound, CN1CCN(c2cccc3nc([C@@H]4CCC[C@H](c5ncccc5Cl)N4)cn23)CC1 (single isomer, unassigned) : bioavailability is 25.4

* * *

- assayNotes: Pharmacokinetics after intravenous or oral administration to dogs
- Type: in vivo
- assayConditions: male, beagle; dog, IV: 1 mg/kg, plasma
quantityKind: AUC

Summary for this molecule, CN1CCN(c2cccc3nc([C@H]4CCC[C@@H](c5ncccc5Cl)N4)cn23)CC1 (single isomer, unassigned) : AUC is 722 ng·h/mL

* * *

- assayNotes: in vitro
- assayConditions: human, Caco-2, pH 7.4
quantityKind: Papp A→B at 90 min, 10 μM

Below are worked cases with known answers.
{"columns": ["givenSmiles", "quantityKind", "measured"],
 "data": [
  ["C/C=C/c1c([C@H]2CCC[C@@H](c3ncccc3C)N2C)nc2cccc(N3CCN(C)CC3)n12", "Papp A→B at 90 min, 10 μM", "1 to 100 nm/s"],
  ["Cc1cccnc1[C@@H]1CCC[C@H](c2nc3cccc(N4CCN(C)CC4)n3c2COC2CC2)N1C", "Papp A→B at 90 min, 10 μM", "1 to 100 nm/s"],
  ["Cc1cccnc1[C@@H]1CCC[C@H](c2nc3cccc(N4CCN(C5CC5)CC4)n3c2CO)N1C", "Papp A→B at 90 min, 10 μM", "100 to 300 nm/s"]
]}

Next up:
Summary for this molecule, `CN(C)C1CCN(c2cccc3nc([C@H]4CCC[C@@H](c5ncccc5Cl)N4C)cn23)CC1` : Papp A→B at 90 min, 10 μM is 1 to 100 nm/s
